system: M19-MEL melanoma; assay: NCI tumour cell line growth inhibition, 48 h

{"columns": ["compound-smiles", "tgt", "TGI"],
 "data": [
  ["Cc1cc(N(CCC#N)S(C)(=O)=O)ccc1C=Nc1ccc(C(=O)NN2C(=O)/C(=C/c3ccc(N(CCC#N)CCC#N)cc3C)N=C2c2cc([N+](=O)[O-])ccc2Cl)cc1", "M19-MEL melanoma", "> 100 µM"],
  ["CC(C)C(N)=O", "M19-MEL melanoma", "> 5000 µM"],
  ["O=S1Nc2c(Cl)cc(Cl)c3c(Cl)cc(Cl)c(c23)N1", "M19-MEL melanoma", "> 100 µM"],
  ["Cn1c(=O)c2nc(-c3ccc(Cl)cc3)oc2n(C)c1=O", "M19-MEL melanoma", "> 100 µM"],
  ["CCOc1cccc2ccc[n+](CC)c12", "M19-MEL melanoma", "> 100 µM"]
]}

* * *

// TGI lookup, one value per entry
test system: COLO 205 colon; assay: NCI tumour cell line growth inhibition, 48 h

{"columns": ["compound-smiles", "TGI"],
 "data": [
  ["CN(C)C(=O)OC(Cn1cncn1)(Cn1cncn1)c1ccc(Cl)cc1Cl", "> 100 µM"],
  ["O=C(O)Cc1ccc2[nH]c(O)c(C3=Nc4ccccc4C3=O)c2c1", "92.1 µM"],
  ["CCOc1cccc2ccc[n+](CC)c12", "> 100 µM"]
]}

* * *

tested on: NCI/ADR-RES ovarian; assay: NCI tumour cell line growth inhibition, 48 h

{"columns": ["compound", "TGI"],
 "data": [
  ["CC1(C)C2CC(=O)C1(C)C(OCc1ccccc1)C2 (centres undefined)", "> 100 µM"],
  ["C=CCO[C@]1(CC=C)C(=O)C(=O)OC1C1COC(C)(C)O1 (some centres undefined)", "> 100 µM"],
  ["CC[C@H]1C=CCC[C@@]2(C[C@@H]3CC[C@H]4[C@@H](C(=O)OCCCCCCCCCCCCCCCC(=O)N(CCCN)C[C@@H](O)CCN)[C@@]5(CCC[C@@H](C)O5)NC(=[N+]34)N2)O1", "> 10 µM"],
  ["CCn1c(-c2cc3ccccc3cc2O)nn(C(=O)c2c(Cl)cccc2Cl)c1=S", "> 50 µM"]
]}

* * *

system: HS 578T breast; assay: NCI tumour cell line growth inhibition, 48 h
metric-name: TGI

{"columns": ["molecule", "metric-name", "value"],
 "data": [
  ["COc1cc2c(cc1OC)C1(COc3cc(O)c(O)c(O)c3C1=O)C2 (centres undefined)", "TGI", "> 50 µM"],
  ["FC(F)(F)c1cccc(-c2nc3ccccc3c3c2[C@@]2(N4CCCC4)CCCC[C@@H]32)c1", "TGI", "> 100 µM"],
  ["COc1cccc(NC(=O)c2sc3nc4c(cc3c2N)C(=O)CCC4)c1", "TGI", "> 100 µM"],
  ["C=CCO[C@]1(CC=C)C(=O)C(=O)OC1C1COC(C)(C)O1 (some centres undefined)", "TGI", "> 100 µM"],
  ["CN(Cc1cc(Cl)cc(Cl)c1)CC(C(=O)c1ccccc1)c1ccccc1 (centres undefined)", "TGI", "> 57.7 µM"],
  ["COc1ccc(C2SCC(=O)N2NC(=O)c2ccc(NC(C)=O)cc2)cc1 (centres undefined)", "TGI", "> 100 µM"],
  ["Cc1cc(C)c(NC(=S)NC(=O)c2ccccc2)cc1C", "TGI", "> 100 µM"],
  ["CC(C)C(/C=C/c1ccc(Cl)c(Cl)c1)=N\\NC(=O)N/N=C(/C=C/c1ccc(Cl)c(Cl)c1)C(C)C", "TGI", "> 100 µM"],
  ["Cc1cc(C)c(Cn2cnc3c(Cl)ncnc32)c(C)c1CCl", "TGI", "> 100 µM"]
]}

* * *

test system: SNB-75 CNS; experiment: NCI tumour cell line growth inhibition, 48 h
Let's look at some molecules and their measured GI50.
metric-name: GI50

{"columns": ["molecule", "tgt", "metric-name", "value"],
 "data": [
  ["C=C1CCC2C(C)(COC(=O)CC)C(OC(=O)CC)CCC2(C)C1C/C=C1/C(=O)OCC1OC(=O)CC (stereo not given)", "SNB-75 CNS", "GI50", "1.22 µM"],
  ["COc1ccc2nc3cc([N+](=O)[O-])ccc3c(NCCCN(C)C)c2c1", "SNB-75 CNS", "GI50", "0.31 µM"],
  ["CCC(CNc1cc(OC)cc2cccnc12)NC1CCCCC1 (stereo not given)", "SNB-75 CNS", "GI50", "21.3 µM"],
  ["COc1ccc(OC)c2c1[nH]c(=O)c1c3ncccc3cn21", "SNB-75 CNS", "GI50", "4.39 µM"],
  ["CC(=O)[CH-]C(=O)c1ccccc1.CC(=O)[CH-]C(=O)c1ccccc1.CCOCC[O-].CCOCC[O-].[Ti+4]", "SNB-75 CNS", "GI50", "16.6 µM"]
]}

* * *

test system: UO-31 renal; assay: NCI tumour cell line growth inhibition, 48 h

{"columns": ["compound", "tgt", "TGI"],
 "data": [
  ["Cc1ccc(/C=N/Nc2ccc3ccccc3n2)s1", "UO-31 renal", "> 100 µM"],
  ["Cc1noc(NC2=CC(=O)C(=O)c3ccccc32)c1C", "UO-31 renal", "> 100 µM"],
  ["CN(C)CCCn1nc(N)c2nc3cc(Cl)ccc3nc21", "UO-31 renal", "> 92.6 µM"],
  ["COC(C)(C)C1(O)CCC(C)CC1=O (stereo not given)", "UO-31 renal", "> 100 µM"],
  ["CCOC(=O)C(C)(C)Oc1ccc(/C=C/C(=O)c2ccc(Cl)cc2)cc1", "UO-31 renal", "> 100 µM"]
]}

* * *

test system: NCI-H23 lung; test: NCI tumour cell line growth inhibition, 48 h
metric-name: TGI (µM)

{"columns": ["compound", "tgt", "metric-name", "comparison-operator", "value"],
 "data": [
  ["OCC(O)c1nc2ccc3[nH]ncc3c2c2c1CCCC2 (stereo not given)", "NCI-H23 lung", "TGI", "=", 2.46],
  ["CCN(CC)CCNC(=O)c1cn2c(ccc3sc4ccccc4c(=O)c32)n1", "NCI-H23 lung", "TGI", "=", 28.4],
  ["CNC(=O)Cc1nc(-c2cccc(NS(=O)(=O)c3c(F)cccc3F)c2F)c(-c2ccnc(Nc3ccccc3)n2)s1", "NCI-H23 lung", "TGI", ">", 50],
  ["CN(C)CCCn1nc(N)c2nc3cc(Cl)ccc3nc21", "NCI-H23 lung", "TGI", ">", 100],
  ["Cc1csc(/N=C\\c2c(O)c3ccccc3oc2=O)n1", "NCI-H23 lung", "TGI", "=", 33],
  ["CCCCCCCCCCCCOCCCOP(=O)([O-])OCC[N+](C)(C)C", "NCI-H23 lung", "TGI", "=", 99.2],
  ["CC(=O)N=C1N(/C=C2\\C(=O)Oc3ccccc3C2=O)C(=O)/C(=C/c2ccc(NC(C)=O)cc2)N1C", "NCI-H23 lung", "TGI", ">", 100],
  ["CCCCCCCCCCC1OC([C@@H](O)CC[C@H](O)C2CC[C@@H](CCCCCCCC(O)CC3=CC(C)OC3=O)O2)CCC1O (stereo not given in full)", "NCI-H23 lung", "TGI", ">", 25],
  ["CC(=O)N=C1N(/C=C2\\C(=O)Oc3ccccc3C2=O)C(=O)/C(=C/c2ccc(Cl)cc2Cl)N1C", "NCI-H23 lung", "TGI", ">", 100],
  ["O=C1OC(O)C(Oc2c(Cl)cccc2Cl)=C1Cl (stereo not given)", "NCI-H23 lung", "TGI", "=", 38.9],
  ["c1c[nH]c(C23C4C5C6C4C2C6C53)n1 (stereo not given)", "NCI-H23 lung", "TGI", ">", 100],
  ["Cc1ccc2nc(-c3ccc(N4C(=O)C(Cl)C4c4ccc(Cl)cc4)cc3)sc2c1 (stereo not given)", "NCI-H23 lung", "TGI", "=", 53.7],
  ["CN(C)c1nc(=Nc2cccc(Cl)c2)ss1", "NCI-H23 lung", "TGI", ">", 100],
  ["N#Cc1c(-c2ccccc2)c(N=Nc2ccc(Cl)cc2)c(=O)n2c1[nH]c1ccccc12", "NCI-H23 lung", "TGI", ">", 100],
  ["Nc1nc(N)c2cc(NCc3ccc(Cl)c(Cl)c3)ccc2n1", "NCI-H23 lung", "TGI", "=", 2.61]
]}

* * *

test system: SN12C renal; test: NCI tumour cell line growth inhibition, 48 h
Each entry below carries its recorded GI50.
metric-name: GI50

{"columns": ["compound", "value"],
 "data": [
  ["CCOC(=O)CC1C(COC(=O)NC)OC(n2cnc3c(NC(=O)Nc4ccccc4)ncnc32)C1O[Si](C)(C)C(C)(C)C (stereo unspecified)", "2170 nM"],
  ["COc1ccc2c(c1)CC[C@H](O)/C2=C/c1cc(OC)c(OC)c(OC)c1", "998 nM"],
  ["COc1cc(Nc2nc3ccccc3cc2C(=O)Nc2ccc(F)c(F)c2)cc(OC)c1OC", "3430 nM"],
  ["NC(=O)c1cccc(Nc2nccc(Nc3cccc4[nH]ncc34)n2)c1", "8740 nM"],
  ["C=C1CCC2C(C)(COC(=O)CC)C(OC(=O)CC)CCC2(C)C1C/C=C1/C(=O)OCC1OC(=O)CC (stereo unspecified)", "2630 nM"],
  ["COC(=O)Cc1ccc(Oc2cnc3cc(F)c(F)cc3n2)cc1", "> 100000 nM"]
]}
